- Target desc: Aβ42 (Homo sapiens, UniProt P05067)
- Sequence (P05067 672-713): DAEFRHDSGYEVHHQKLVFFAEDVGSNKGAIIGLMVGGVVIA
- Assay explanation: Th-T (thioflavin-T) assay of Aβ42 aggregation
- Type: biochemical
- Settings: column suffix _10; reading M99
Measure name: Fig. 7a Th-T reading, mean of three wells
Respond with the number and no other words.

Answered cases to consult:
| Molecule | Endpoint result |
| --- | --- |
| C=C1CC[C@@H]2[C@](C)(CC[C@H]3O[C@H](C=C(C)C)C[C@@]23C)[C@@H]1Cc1c(OC)oc(CO)c(C(=O)OC)c1=O | 1.631 |
| C=C1CCC2C(C)(CCC=C(C)C)C(O)CCC2(C)C1Cc1c(OC)oc(C)c(C(=O)OC)c1=O (centres unmarked) | 2.862 |
| C=C1CC[C@@H]2[C@](C)(CC[C@H]3O[C@H](C=C(C)C)C[C@@]23C)[C@@H]1Cc1c(OC)oc(CO)c(C)c1=O | 3.3 |
| C=C1CCC2C(C)(CCC=C(C)C)C(O)CCC2(C)C1Cc1c(OC)oc(CO)c(C(=O)OC)c1=O (centres unmarked) | 1.551 |

Value lookup for Fig. 7a Th-T reading, mean of three wells; key = C=C1CCC2C(C)(CCC=C(C)C)C(O)CCC2(C)C1Cc1c(OC)oc(CO)c(C)c1=O (centres unmarked)
2.8964

---

- Assay explanation: cytotoxicity in Drosophila DL1 cells
- Assay type: cell-based
- Settings: Drosophila, DL1 cells (embryonic macrophage-derived), DL1 cells, 1 µM, replicate 1, relative to DMSO 1%; read-out: % viability, viability 1
Measure name: viability at 1 µM (%)
Field: numeric (%). Do not append units.

| Compound | Value unit | Endpoint result |
| --- | --- | --- |
| C=C1CCC2C(C)(CCC=C(C)C)C(O)CCC2(C)C1Cc1c(OC)oc(CO)c(C(=O)OC)c1=O (stereo not shown) | % | 9.59 |
| C=C1CCC2C(C)(CC(=O)C=C(C)C)C(O)CCC2(C)C1Cc1c(OC)oc(C)c(C)c1=O (stereo not shown) | % | 128 |

Value lookup for viability at 1 µM; key = C=C1CC[C@H]2[C@]3(C)C[C@H](C=C(C)C)O[C@H]3CC[C@]2(C)[C@@H]1Cc1c(OC)oc(CO)c(C)c1=O
7.49

Value lookup for viability at 1 µM; key = C=C1CCC2C(C)(CC(=O)C=C(C)C)C(O)CCC2(C)C1Cc1c(O)c(C)c(C)oc1=O (stereo not shown)
120

---

- Target desc: Aβ42 (Homo sapiens, UniProt P05067)
- Assay explanation: Th-T (thioflavin-T) assay of Aβ42 aggregation
- Type: biochemical
- Settings: column suffix _20; measurement M28
Measure name: Th-T fluorescence, mean of three wells (Fig. 7a)
Respond with the number and no other words.

Answered cases to consult:
| Compound | Endpoint result |
| --- | --- |
| C=C1CC[C@@H]2[C@](C)(CC[C@H]3O[C@H](C=C(C)C)C[C@@]23C)[C@@H]1Cc1c(OC)oc(CO)c(C)c1=O | 3.346 |
| C=C1CC[C@@H]2[C@](C)(CC[C@H]3O[C@H](C=C(C)C)C[C@@]23C)[C@@H]1Cc1c(OC)oc(CO)c(C(=O)OC)c1=O | 0.2017 |
| C=C1CCC2C(C)(CCC=C(C)C)C(O)CCC2(C)C1Cc1c(OC)oc(CO)c(C(=O)OC)c1=O (centres unmarked) | 0.1912 |
| C=C1CCC2C(C)(CCC=C(C)C)C(O)CCC2(C)C1Cc1c(OC)oc(C)c(C(=O)OC)c1=O (centres unmarked) | 1.672 |

Value lookup for Th-T fluorescence, mean of three wells (Fig. 7a); key = C=C1CCC2C(C)(CCC=C(C)C)C(O)CCC2(C)C1Cc1c(OC)oc(CO)c(C)c1=O (centres unmarked)
2.387
